- measurement_protocol: NFAT Signaling Pathway (AID 444);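 further: carbachol stimulus at about its EC50 of 1 µM final; on the % scale 0 is the no-effect control and ±100 the full control effect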
- condition_notes: Jurkat NFAT-bla M1, carbachol, beta-lactamase ratio, 5 h; at 7.69 µM (top of the series) unless noted
Results filed as inconclusive are left out.
quantity_measured: activity change, negative = inhibition (%)
Note: unit % is implicit; provide only the numeric part.

activity change, negative = inhibition in this record for Cc1nc2cnc(N3CCN(C)CC3)nc2n(CCC#N)c1=O : -13.7

activity change, negative = inhibition in this record for COc1cccc(Nc2ncc3nc(-c4ccc(Cl)cc4)c(=O)n(C4CC4)c3n2)c1 : -4.19

activity change, negative = inhibition in this record for CNc1ncncc1-c1c(C)noc1C : -0.793

activity change, negative = inhibition in this record for COc1ncc2ncc(=O)n(Cc3cccs3)c2n1 : -2.85

activity change, negative = inhibition in this record for O=C(c1ccncc1)N1CCC[C@@]2(CCN(c3ccccn3)C2)C1 : 6.17

activity change, negative = inhibition in this record for COc1ccc(-n2c(=O)c(-c3cc(F)cc(F)c3)nc3cnc(N(C)C)nc32)cc1 : 17.5

activity change, negative = inhibition in this record for Cc1nc2cnc(N(C)C)nc2n(CCC#N)c1=O : -13.7

activity change, negative = inhibition in this record for Cc1cccc(CNc2ncncc2-c2ccc3c(c2)OCO3)c1 : -2.79

activity change, negative = inhibition in this record for O=C(c1ccncc1)N1CCC2(CC1)CCN(c1ccccc1)CC2 : 12.8

activity change, negative = inhibition in this record for COc1ccc(NC(=O)N2CC[C@@]3(CCCN(C(=O)c4cccn4C)C3)C2)cc1 : 4.79

activity change, negative = inhibition in this record for COc1ccc(Oc2ncc3nc(CCc4ccccc4)c(=O)n(C[C@H]4CCCO4)c3n2)cc1 : -6.61

activity change, negative = inhibition in this record for COc1ccccc1CN1CC[C@@]2(CCCN(C(=O)c3cccn3C)C2)C1 : -9.11

activity change, negative = inhibition in this record for CN(C)c1ccc(-c2ccc3ncnc(N4CCNCC4)c3c2)cc1 : -13.1

activity change, negative = inhibition in this record for O=C(c1cnccn1)N1CCC[C@@]2(CCN(C(c3ccccc3)c3ccccc3)C2)C1 : 11.2

activity change, negative = inhibition in this record for COc1ccc(-c2nc3cnc(Nc4cccc(OC)c4)nc3n(C[C@H]3CCCO3)c2=O)cc1 : -19.9

Reference source for all entries: PubChem BioAssay (NCATS)
